Protocol: in vitro
Condition Set: human, hela cells, % viability
Reported Endpoint: viability at 28.5 h, 10 µM (%)
Write the number in % without appending the unit.

Worked cases, viability at 28.5 h, 10 µM given:
compound="CCCn1c(CN2CCN(CCO)CC2)nc2ccccc21 [CBK269363]" readout_units=% result_number=110
compound="CCOCCCNC(=O)/C(=C/c1cccnc1)NC(=O)c1ccccc1 [CBK126866]" readout_units=% result_number=90.8
compound="Cc1ccn(CCNC(=O)c2[nH]c3c(Cl)cccc3c2C)n1 [CBK282608]" readout_units=% result_number=97.9
compound="COCCNC(=O)NCCCn1c(-c2ccncc2)nc2cccnc21 [CBK288581]" readout_units=% result_number=98.6

Query compound follows.
Look up viability at 28.5 h, 10 µM for this compound: CCCC(=O)c1ccc(S(=O)(=O)N2CCCN(Cc3ccc4cccc(O)c4n3)CC2)cc1 [CBK062901]
102

* * *

Protocol: in vitro
Condition Set: human, hela cells, % viability
Reported Endpoint: viability at 28.5 h, 10 µM (%)
Field: numeric (%). Do not append units.

Below are worked cases with known answers.
compound="O=C(c1ccccc1F)N1CCC(O)(c2ccc(F)cc2)CC1 [CBK281943]" result_number=80.9
compound="COc1n[nH]c(CO)c1Cc1c(Cl)cccc1Cl [CBK092283T]" result_number=97.3
compound="O=C(c1cccc2[nH]ccc12)N1CCN(CCc2ccccc2)CC1 [CBK200203]" result_number=104
compound="O=C(c1ccccc1)N1C[C@@H](c2ccsc2)[C@@H]2CN(Cc3ccccc3Cl)CC[C@@H]21 [CBK285613]" result_number=101
compound="Cc1cn(-c2ccc(Br)cc2)[nH]c1=O [CBK288513]" result_number=92.7
compound="O=[N+]([O-])c1cc(S(=O)(=O)Nc2ccc3[nH]ncc3c2)ccc1Cl [CBK062537]" result_number=84.6

Entry under review: CC(Nc1cccc2ccccc12)C(=O)N/N=C/c1ccc(O)cc1O (stereo not drawn) [CBK262681] . Reported viability at 28.5 h, 10 µM?
75.9

Suppose we examine the compound Cc1cccc(NC(=O)CN2C(=O)S/C(=C\c3cc(C)n(-c4ccc(N(C)C)cc4)c3C)C2=O)c1 [CBK264586] ; what viability at 28.5 h, 10 µM value has been reported?
96.9

Given the entry CC(C)[C@@H](CO)n1c(=O)[nH]c2ncc(-c3ccco3)nc21 [CBK065018] , report its measured viability at 28.5 h, 10 µM.
106

* * *

Protocol: in vitro
Condition Set: human, hela cells, % viability
viability at 28.5 h, 10 µM under 90% gets Fulfilled, anything at or over 90% gets Not fulfilled.

Use these answered entries as a reference point.
compound="CCCC(C)N(C)C(=O)CCc1c(C)nc(-c2cccnc2)[nH]c1=O (centres unmarked)" qualitative_label="Not fulfilled"
compound="CC(CN1CCCCC1)OC(=O)C(c1ccccc1)c1ccccc1 (centres unmarked) [CBK265237C]" qualitative_label="Not fulfilled"
compound="CC(C)(C)c1ccc(CNC(=O)C2CCCN2S(=O)(=O)c2ccc3ccccc3c2)cc1 (centres unmarked)" qualitative_label="Not fulfilled"
compound=COc1ccccc1C1(NCc2cnn(C)c2)CCCC1 qualitative_label="Not fulfilled"
compound=CC1(C)C[C@H](NC(=O)c2cccs2)[C@@]2(CCC(=O)N3CCCC3)CC[C@](C)(O)C[C@@H]12 qualitative_label="Not fulfilled"

Threshold test, viability at 28.5 h, 10 µM < 90%: CCCC/C=C/c1cncc(Nc2ccccc2)n1
Not fulfilled

Hi there! Is viability at 28.5 h, 10 µM for CC(C)(CO)CNc1cncc(-c2cccc(C(F)(F)F)c2)n1 below 90%, do you know?
Not fulfilled
